Target: T1, human eIF5-mimic protein 1 (h5MP1), wild type, untagged (human, UniProt Q9Y6E2 1-419)
T1 sequence (looked up): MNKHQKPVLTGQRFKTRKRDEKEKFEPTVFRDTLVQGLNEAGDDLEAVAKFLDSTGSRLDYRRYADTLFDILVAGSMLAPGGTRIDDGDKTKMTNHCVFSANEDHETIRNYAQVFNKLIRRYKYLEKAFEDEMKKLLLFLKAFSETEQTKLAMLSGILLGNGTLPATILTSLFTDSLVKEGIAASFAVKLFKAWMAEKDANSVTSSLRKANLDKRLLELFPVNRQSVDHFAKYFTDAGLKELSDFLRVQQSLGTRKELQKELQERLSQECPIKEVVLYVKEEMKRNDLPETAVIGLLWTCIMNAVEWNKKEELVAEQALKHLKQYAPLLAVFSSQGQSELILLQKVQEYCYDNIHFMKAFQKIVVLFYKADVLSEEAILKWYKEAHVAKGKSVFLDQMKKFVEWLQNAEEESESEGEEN
Test: ITC
pKd: −log10 of the molar value.

{"columns": ["binder", "pKd"],
 "data": [
  ["heIF2β_(53-136), GB1- and His-tags removed (domain or fragment, human, UniProt P20042 53-136, looked up) DLEADEEDTRKKDASDDLDDLNFFNQKKKKKKTKKIFDIDEAEEGVKDLKIESDVQEPTEPEDDLDIMLGNKKKKKKNVKFPDE", 5.30]
]}
